These measurements were taken from patent US12286423B2.

Each entry below carries its recorded EC50.
Test system: HRV A16
Assay: HRV A16 CPE inhibition assay
Type: cell-based
Conditions: Human rhinovirus sp.; HRV A16, cytopathic effect inhibition
Express it in µM; write the number only.

Use the examples below as a reference point.
[[record]]
molecule = "Cc1c(S(C)(=O)=O)c[nH]c1C(=O)NC12C(=O)c3c(N)cccc3C1(O)Oc1cc([C@@H]3C[C@@H]3C)ccc12 (stereo partly drawn)"
reported_measurement = 0.199

[[record]]
molecule = "C[C@H](c1ccc2c(c1)O[C@]1(O)c3cccc(N)c3C(=O)[C@]21NC(=O)CN1CCC1)C1CC1"
reported_measurement = 0.072

[[record]]
molecule = "C[C@@H](c1ccc2c(c1)O[C@]1(O)c3cccc(N)c3C(=O)[C@]21NC(=O)c1cccc(O)n1)C1CC1"
reported_measurement = 0.068

[[record]]
molecule = "Cc1[nH]c(C(=O)NC23C(=O)c4c(N)cccc4C2(O)Oc2cc(C(C)C)ccc23)c(C)c1S(N)(=O)=O (stereo not drawn)"
reported_measurement = 0.14

[[record]]
molecule = "Cc1cc(S(=O)(=O)N2CCN(C)CC2)[nH]c1C(=O)N[C@]12C(=O)c3c(N)cccc3[C@@]1(O)Oc1cc(OC(C)C)ccc12 (single isomer, unassigned)"
reported_measurement = 0.022


Data request, read-out EC50, for Cc1c(S(C)(=O)=O)c[nH]c1C(=O)NC12C(=O)c3c(N)cccc3C1(O)Oc1cc([C@]3(C)C[C@@H]3C)ccc12 (stereo partly drawn)
0.046

Data request, read-out EC50, for Cc1cc(S(=O)(=O)N2CCN(C)CC2)[nH]c1C(=O)NC12C(=O)c3c(N)cccc3C1(O)Oc1cc([C@H]3C[C@@H]3C)ccc12 (mixture of isomers)
0.02

----------
System: C15_C3 REPLICON
Assay: C15_C3 replicon assay
Assay type: cell-based
quantity.kind: EC50
Please give the number followed by its unit.

Use the examples below as a reference point.
[[record]]
molecule = "C[C@H](c1ccc2c(c1)O[C@]1(O)c3cccc(N)c3C(=O)[C@]21NC(=O)CN1CCC1)C1CC1"
quantity_kind = "EC50"
reported_measurement = "1.35 µM"

[[record]]
molecule = "Cc1c(C(=O)NC23C(=O)c4c(N)cccc4C2(O)Oc2cc(C(C)C)ccc23)[nH]c(S(=O)(=O)NCCN(C)C)c1C (stereo not drawn)"
quantity_kind = "EC50"
reported_measurement = "2.39 µM"


Okay, next one:
State its EC50 on C15_C3 REPLICON: Cc1c(S(C)(=O)=O)c[nH]c1C(=O)NC12C(=O)c3c(N)cccc3C1(O)Oc1cc([C@H]3C[C@H]3C)ccc12 (stereo partly drawn)
0.705 µM

----------
Tested on: C15_C3 REPLICON
Assay: C15_C3 replicon assay
Format: cell-based
Each entry below carries its recorded EC50.
Express it in µM; write the number only.

Use the examples below as a reference point.
[[record]]
molecule = "Cc1cc(S(=O)(=O)N2CCN(C)CC2)[nH]c1C(=O)NC12C(=O)c3c(N)cccc3C1(O)Oc1cc(C(C)C)ccc12 (stereo not shown)"
quantity_kind = "EC50"
reported_measurement = 0.682

[[record]]
molecule = "C[C@@H]1C[C@@H]1c1ccc2c(c1)O[C@]1(O)c3cccc(N)c3C(=O)[C@]21NC(=O)CN1CCC1"
quantity_kind = "EC50"
reported_measurement = 0.853

[[record]]
molecule = "Cc1c(S(C)(=O)=O)c[nH]c1C(=O)NC12C(=O)c3c(N)cccc3C1(O)Oc1cc([C@@H]3C[C@@H]3C)ccc12 (stereo partly shown)"
quantity_kind = "EC50"
reported_measurement = 1.82

[[record]]
molecule = "Cc1cc(S(=O)(=O)N2CCN(C)CC2)[nH]c1C(=O)NC12C(=O)c3c(N)cccc3C1(O)Oc1cc([C@H]3C[C@@H]3C)ccc12 (mixture of isomers)"
quantity_kind = "EC50"
reported_measurement = 1.09

[[record]]
molecule = "Cc1c(S(C)(=O)=O)c[nH]c1C(=O)NC12C(=O)c3c(N)cccc3C1(O)Oc1cc([C@]3(C)C[C@@H]3C)ccc12 (stereo partly shown)"
quantity_kind = "EC50"
reported_measurement = 1.18

[[record]]
molecule = "Cc1c(S(C)(=O)=O)c[nH]c1C(=O)N[C@]12C(=O)c3c(N)cccc3[C@@]1(O)Oc1cc([C@H]3C[C@@H]3C)ccc12"
quantity_kind = "EC50"
reported_measurement = 1.85


Data request, read-out EC50, for "C[C@H](c1ccc2c(c1)O[C@]1(O)c3cccc(N)c3C(=O)[C@]21NC(=O)c1cccc(O)n1)C1CC1"
4.81

----------
Each entry below carries its recorded EC50.
System: HRV B14
Experiment: HRV B14 CPE inhibition assay
Assay type: cell-based
Conditions: Human rhinovirus sp.; HRV B14, cytopathic effect inhibition

Use the examples below as a reference point.
[[record]]
compound = "Cc1c(C(=O)N[C@]23C(=O)c4c(N)cccc4[C@@]2(O)Oc2cc([C@H](C)C4CC4)ccc23)[nH]c(=O)n1C"
experimental_target = "HRV B14"
reported_measurement = "0.016 µM"

[[record]]
compound = "Cc1c(S(C)(=O)=O)c[nH]c1C(=O)N[C@]12C(=O)c3c(N)cccc3[C@@]1(O)Oc1cc([C@@H]3C[C@H]3C)ccc12"
experimental_target = "HRV B14"
reported_measurement = "0.016 µM"

[[record]]
compound = "Cc1cc(S(=O)(=O)N2CCN(C)CC2)[nH]c1C(=O)NC12C(=O)c3c(N)cccc3C1(O)Oc1cc([C@H]3C[C@@H]3C)ccc12 (mixture of isomers)"
experimental_target = "HRV B14"
reported_measurement = "0.016 µM"


Okay, next one:
Data request, read-out EC50, for Cc1cc(S(=O)(=O)N2CCN(C)CC2)[nH]c1C(=O)NC12C(=O)c3c(N)cccc3C1(O)Oc1cc(C(C)C)ccc12 (stereo not shown)
0.016 µM

----------
System: HRV A16
Assay: HRV A16 CPE inhibition assay
Format: cell-based
Settings: Human rhinovirus sp.; HRV A16, cytopathic effect inhibition
quantity.kind: log10 of EC50 (log10 of the value in µM)
Please keep in mind that the values are log10 of EC50 expressed in µM.

[[record]]
compound = "Cc1cc(S(=O)(=O)N2CCN(C)CC2)[nH]c1C(=O)NC12C(=O)c3c(N)cccc3C1(O)Oc1cc(C(C)C)ccc12 (stereo not shown) [Example 13]"
reported_measurement = -1.57

[[record]]
compound = "Cc1c(S(C)(=O)=O)c[nH]c1C(=O)NC12C(=O)c3c(N)cccc3C1(O)Oc1cc([C@H]3C[C@H]3C)ccc12 (stereo partly shown) [Example 27]"
reported_measurement = -1.08

[[record]]
compound = "C[C@H](O)[C@@H](C(=O)NC12C(=O)c3c(N)cccc3C1(O)Oc1cc([C@H](C)C3CC3)ccc12)N(C)C (stereo partly shown) [Example 10]"
reported_measurement = -0.18

[[record]]
compound = "C[C@@H]1C[C@@H]1c1ccc2c(c1)O[C@]1(O)c3cccc(N)c3C(=O)[C@]21NC(=O)CN1CCC1 [Example 2]"
reported_measurement = -1.04

[[record]]
compound = "Cc1c(C(=O)N[C@]23C(=O)c4c(N)cccc4[C@@]2(O)Oc2cc([C@H](C)C4CC4)ccc23)[nH]c(=O)n1C [Example 22]"
reported_measurement = -1.20

[[record]]
compound = "Cc1cc(S(C)(=O)=O)[nH]c1C(=O)NC12C(=O)c3c(N)cccc3C1(O)Oc1cc([C@@H]3C[C@@H]3C)ccc12 (stereo partly shown) [Example 26]"
reported_measurement = -1.03


Okay, next one:
Data request, read-out log10 of EC50, for Cc1cc(S(=O)(=O)N2CC[C@H](N(C)C)C2)[nH]c1C(=O)NC12C(=O)c3c(N)cccc3C1(O)Oc1cc([C@H]3C[C@@H]3C)ccc12 (mixture of isomers) [Example 11]
-1.64

----------
Test system: C15_C3 REPLICON
Test: C15_C3 replicon assay
Type: cell-based
Each entry below carries its recorded EC50.
Express it in µM; write the number only.

Use the examples below as a reference point.
[[record]]
compound = "C[C@@H](c1ccc2c(c1)O[C@]1(O)c3cccc(N)c3C(=O)[C@]21NC(=O)CN1CCC1)C1CC1"
reported_measurement = 1.36

[[record]]
compound = "Cc1cc(S(=O)(=O)N2CCN(C)CC2)[nH]c1C(=O)N[C@]12C(=O)c3c(N)cccc3[C@@]1(O)Oc1cc(OC(C)C)ccc12 (single isomer, unassigned)"
reported_measurement = 0.876


Data request, read-out EC50, for "Cc1c(S(C)(=O)=O)c[nH]c1C(=O)N[C@]12C(=O)c3c(N)cccc3[C@@]1(O)Oc1cc([C@@H]3C[C@H]3C)ccc12"
4

----------
Experiment: Cytotoxicity (CC50) in mock-infected cells, MTT assay
Type: cell-based
Settings: human, HeLa cells (mock-infected), 50% cytotoxic concentration, read-out: CYTOTOX (CC50 μM)
Each entry below carries its recorded CC50.
Express it in µM; write the number only.

Use the examples below as a reference point.
[[record]]
molecule = "Cc1cc(S(C)(=O)=O)[nH]c1C(=O)NC12C(=O)c3c(N)cccc3C1(O)Oc1cc([C@@H]3C[C@@H]3C)ccc12 (stereo partly shown) [Example 26]"
quantity_kind = "CC50"
reported_measurement = 37.1

[[record]]
molecule = "C[C@@H](c1ccc2c(c1)O[C@]1(O)c3cccc(N)c3C(=O)[C@]21NC(=O)CN1CCC1)C1CC1 [Example 17]"
quantity_kind = "CC50"
reported_measurement = 24.5

[[record]]
molecule = "C[C@H](c1ccc2c(c1)O[C@]1(O)c3cccc(N)c3C(=O)[C@]21NC(=O)[C@H]([C@H](C)O)N(C)C)C1CC1 [Example 15]"
quantity_kind = "CC50"
reported_measurement = 45.2

[[record]]
molecule = "Cc1c(C(=O)N[C@]23C(=O)c4c(N)cccc4[C@@]2(O)Oc2cc([C@@H](C)C4CC4)ccc23)[nH]c(=O)n1C [Example 18]"
quantity_kind = "CC50"
reported_measurement = 31.8


Data request, read-out CC50, for Cc1cc(S(=O)(=O)N2CCN(C)CC2)[nH]c1C(=O)NC12C(=O)c3c(N)cccc3C1(O)Oc1cc([C@H]3C[C@@H]3C)ccc12 (mixture of isomers) [Example 9]
25.6

Data request, read-out CC50, for Cc1cc(S(C)(=O)=O)[nH]c1C(=O)NC12C(=O)c3c(N)cccc3C1(O)Oc1cc(C3C[C@H]3C)ccc12 (stereo in doubt) [Example 21]
37.3

Data request, read-out CC50, for Cc1cc(S(=O)(=O)N2CCN(C)CC2)[nH]c1C(=O)N[C@]12C(=O)c3c(N)cccc3[C@@]1(O)Oc1cc(OC(C)C)ccc12 (single isomer, unassigned) [Example 19]
48.3

Data request, read-out CC50, for Cc1cc(S(=O)(=O)N2CCN(C)CC2)[nH]c1C(=O)NC12C(=O)c3c(N)cccc3C1(O)Oc1cc([C@H]3C[C@H]3C)ccc12 (stereo partly shown) [Example 24]
28.4

Data request, read-out CC50, for Cc1cc(S(=O)(=O)N2CCN(C)CC2)[nH]c1C(=O)N[C@]12C(=O)c3c(N)cccc3[C@@]1(O)Oc1cc([C@H]3C[C@@H]3C)ccc12 [Example 14]
21.9

Data request, read-out CC50, for Cc1[nH]c(C(=O)NC23C(=O)c4c(N)cccc4C2(O)Oc2cc(C(C)C)ccc23)c(C)c1S(N)(=O)=O (stereo not shown) [Example 25]
27

Data request, read-out CC50, for Cc1c(S(C)(=O)=O)c[nH]c1C(=O)N[C@]12C(=O)c3c(N)cccc3[C@@]1(O)Oc1cc([C@@H]3C[C@H]3C)ccc12 [Example 1]
34.7

Data request, read-out CC50, for C[C@@H](c1ccc2c(c1)O[C@]1(O)c3cccc(N)c3C(=O)[C@]21NC(=O)c1cccc(O)n1)C1CC1 [Example 8]
35

Data request, read-out CC50, for Cc1c(C(=O)NC23C(=O)c4c(N)cccc4C2(O)Oc2cc(C(C)C)ccc23)[nH]c(S(=O)(=O)NCCN(C)C)c1C (stereo not shown) [Example 4]
8.58
